target: human lung tryptase; test: β-Tryptase In-Vitro Enzyme Assay; settings: human lung tryptase 1 nM, substrate H-D-HHT-Ala-Arg-pNa 500 μM, pH 7.4, room temperature
pIC50: −log10 of the molar value.
result-type: pIC50

Example results:
Cc1cccc(CC(=O)N2CCC3(CC2)COc2ccc(CN)cc23)c1: 5.85
COC(=O)c1cccc(S(=O)(=O)N2CC3(CCN(C(=O)c4ccc(C#Cc5ccccc5)o4)CC3)c3cc(CN)ccc32)c1: 7.64
NCc1ccc2c(c1)C1(CCN(C(=O)/C=C/c3cccc(OC(F)(F)F)c3)CC1)CO2: 6.22

P. NCc1ccc2c(c1)C1(CCN(C(=O)c3ccc(C#Cc4ccccc4)o3)CC1)CN2S(=O)(=O)c1ccc(C(=O)O)o1
Q. NCc1ccc2c(c1)C1(CCN(C(=O)Cc3ccc(-c4ccccc4)cc3)CC1)CO2
R. NCc1ccc2c(c1)C1(CCN(C(=O)Cc3ccccc3)CC1)CO2
S. Cc1cc(OCc2ccc(C(=O)N3CCC4(CC3)COc3ccc(CN)cc34)o2)ccc1Cl
Arrange items by their pIC50 values in increasing order. Please, when replying, give the labels in the order that was requested.
R, Q, S, P
(R: 5.85, Q: 6.31, S: 7.06, P: 7.44)

====

molecular target: human lung tryptase; test: β-Tryptase In-Vitro Enzyme Assay; details: human lung tryptase 1 nM, substrate H-D-HHT-Ala-Arg-pNa 500 μM, pH 7.4, room temperature
result-type: IC50 (µM)

NCc1ccc2c(c1)C1(CCN(C(=O)/C=C/c3cccc(Cl)c3)CC1)CO2 [Cpd 164]: 0.14
CSc1sc(C(=O)N2CCC3(CC2)COc2ccc(CN)cc23)c2c1C(=O)CCC2 [Cpd 155]: 0.012
COc1ccc(C(=O)N2CCC3(CC2)COc2ccc(CN)cc23)cc1I [Cpd 52]: 0.022
COc1ccc(C(=O)N2CCC3(CC2)COc2ccc(CN)cc23)cc1OC [Cpd 40]: 0.25
NCc1ccc2c(c1)C1(CCN(C(=O)c3cn(Cc4ccccc4)c4ccccc34)CC1)CO2 [Cpd 239]: 0.27

A. NCc1ccc2c(c1)C1(CCN(C(=O)/C=C/c3ccc(OCc4ccccc4)cc3)CC1)CO2 [Cpd 300]
B. NCc1ccc2c(c1)C1(CCN(C(=O)c3ccc4c(c3)OCO4)CC1)CO2 [Cpd 68]
C. CCOC(=O)C(=O)N1CC2(CCN(C(=O)c3ccc(C#Cc4ccccc4)o3)CC2)c2cc(CN)ccc21 [Cpd 329]
Order field: IC50 | Direction: descending (largest first) Please, when replying, give the labels in the order that was requested.
A, B, C
(A: 1.5 µM, B: 0.19 µM, C: 0.044 µM)

a. NCc1ccc2c(c1)C1(CCN(C(=O)c3cccc(NS(=O)(=O)c4ccccc4)c3)CC1)CO2 [Cpd 18]
b. CSc1sc(C(=O)N2CCC3(CC2)COc2ccc(CN)cc23)c2ccccc12 [Cpd 234]
Identify the item whose IC50 is the smaller number: a or b Let me know the label of the one you choose.
b

A. COc1cccc2c(C(=O)N3CCC4(CC3)COc3ccc(CN)cc34)sc(SC)c12 [Cpd 235]
B. NCc1ccc2c(c1)C1(CCN(C(=O)c3cc4ccccc4n3S(=O)(=O)c3ccccc3)CC1)CO2 [Cpd 283]
C. CC1(C)CC(=O)c2c(SCc3ccccc3)sc(C(=O)N3CCC4(CC3)COc3ccc(CN)cc34)c2C1 [Cpd 232]
Arrange items by their IC50 values in increasing order. Please, when replying, give the labels in the order that was requested.
A, C, B
